These entries and their values trace back to ChEMBL document CHEMBL1122752.

System: Vero
assay_comment: In vitro antiviral activity was determined by plaque-reduction assay in HSV-1(strain 2931) infected Vero cell monolayers
Format: functional
experimental_conditions: Chlorocebus sabaeus, read-out: ED50 (the source's name)
Label Satisfied when EC50 is strictly below 400 nM; otherwise label Not satisfied.

1. Nc1nc(=O)n([C@@H]2O[C@H](CO)[C@@H](O)[C@H]2F)cc1I	Satisfied
2. O=c1[nH]c(=O)n([C@@H]2O[C@H](CO)[C@@H](O)[C@@H]2F)cc1/C=C/Cl	Not satisfied
3. CCc1cn([C@H]2O[C@@H](CO)[C@H](O)[C@@H]2F)c(=O)[nH]c1=O	Satisfied
4. O=c1[nH]c(=O)n([C@@H]2O[C@H](CO)[C@@H](O)[C@@H]2F)cc1/C=C/I	Not satisfied
5. C=Cc1cn([C@@H]2O[C@H](CO)[C@@H](O)[C@H]2F)c(=O)[nH]c1=O	Satisfied
6. O=c1[nH]c(=O)n([C@H]2C[C@H](O)[C@@H](CO)O2)cc1/C=C/Br	Satisfied
